# Test system: SJSA-1
# Method summary: Cell proliferation (Alamar Blue) assay, SJSA-1 osteosarcoma, with/without ferrostatin
# Type: cell-based, human
# Cond: Homo sapiens, SJSA-1, Cell Line SJSA-1; read-out: IC50
pIC50: −log10 of the molar value.
Experimental readout: pIC50

C#CC(=O)N1[C@@H](c2ccc(F)cc2)c2[nH]c3ccccc3c2C[C@@H]1C(=O)OC    7.52
C[C@H]1Cc2c([nH]c3ccccc23)[C@H](c2ccc(CN3CCOCC3)cc2)N1C(=O)CCl    5.17
C[C@H]1Cc2c([nH]c3ccccc23)[C@H](c2ccc(N3CC4(COC4)C3)cc2)N1C(=O)CCl    7.18

P = C#CC(=O)N1[C@@H](c2ccc(F)cc2)c2[nH]c3ccccc3c2C[C@@H]1C1CCCC1
Q = C#CC(=O)N1[C@@H](c2ccc(S(=O)(=O)NC3CC3)cc2F)c2[nH]c3ccc(F)cc3c2C[C@@H]1C
R = C[C@H]1Cc2c([nH]c3ccccc23)C(c2ccc(S(N)(=O)=O)cc2)N1C(=O)CCl (stereo partly shown)
Ask: rank_up(items): orders items by reported pIC50 in ascending numerical order. Could you list the labels in the order requested?
Result: R, P, Q

###

# Method summary: Whole blood stability, human
# Format: in vitro ADME
# Cond: 30 min
Experimental readout: Whole Blood Stability % Remaining at 37° C. Human (%)

COC(=O)[C@H]1Cc2c([nH]c3ccccc23)[C@H](c2ccc(C(=O)N3CCOCC3)cc2)N1C(=O)CCl [Compound 26]    47.1

P = COC[C@H]1Cc2c([nH]c3ccccc23)[C@H](c2ccc(C(=O)OC(C)(C)C)cc2)N1C(=O)CCl [Compound 63]
Q = COC(=O)[C@H]1Cc2c([nH]c3ccccc23)[C@@H](c2ccc(C(=O)N3CCC(O)CC3)cc2)N1C(=O)CCl [Compound 32a]
Ask: I'd appreciate it if you could identify which of P and Q has the greater Whole Blood Stability % Remaining at 37° C. Human. Kindly give the label for the entry you pick.
Result: P
(P: 113.1%, Q: 1.9%)

A = CN(C)C(=O)[C@H]1Cc2c([nH]c3ccccc23)[C@H](c2ccc(S(=O)(=O)C3CC3)cc2)N1C(=O)CCl [Compound 70]
B = CC[C@H]1Cc2c([nH]c3ccccc23)[C@H](c2ccc(N3CCOCC3)cc2)N1C(=O)CCl [Compound 117]
Ask: Problem: Given the entries A and B , determine which has the lower reported Whole Blood Stability % Remaining at 37° C. Human. Give the label under which the chosen entry appears.
Result: A

###

# Method summary: in vivo
# Cond: male, Balb/c nude, mouse, ip, 15 mg/kg
Experimental readout: AUC (µg·h/mL)
Note: unit µg·h/mL is implicit; provide only the numeric part.

// recorded AUC for COC(=O)[C@H]1Cc2c([nH]c3ccccc23)[C@H](c2ccc(C(=O)OC(C)(C)C)cc2)N1C(=O)CCl [Example 1] : 0.123

###

# Method summary: in vivo
# Cond: male, Balb/c nude, mouse, ip, 15 mg/kg, Calculated Concentration
Experimental readout: concentration at 1 h (ng/mL)

P = COC(=O)[C@H]1Cc2c([nH]c3ccccc23)[C@H](c2ccc(C(=O)OC(C)(C)C)cc2)N1C(=O)CCl [Example 1]
Q = COC(=O)[C@H]1Cc2c([nH]c3ccccc23)[C@H](c2ccc(S(=O)(=O)N[C@]34C[C@H]5C[C@H](C[C@H](C5)C3)C4)cc2)N1C(=O)CCl [Example 24]
Ask: Consider P and Q . Which of these has its concentration at 1 h at a higher number? Mark your selection by writing its label.
Result: Q
(Q: 355 ng/mL, P: 56.1 ng/mL)
